From: patent US20180258152

Reported values of IC50 for individual entries
Molecular target: T1, human GIP receptor (GIPR) (human), P48546
T1 chain: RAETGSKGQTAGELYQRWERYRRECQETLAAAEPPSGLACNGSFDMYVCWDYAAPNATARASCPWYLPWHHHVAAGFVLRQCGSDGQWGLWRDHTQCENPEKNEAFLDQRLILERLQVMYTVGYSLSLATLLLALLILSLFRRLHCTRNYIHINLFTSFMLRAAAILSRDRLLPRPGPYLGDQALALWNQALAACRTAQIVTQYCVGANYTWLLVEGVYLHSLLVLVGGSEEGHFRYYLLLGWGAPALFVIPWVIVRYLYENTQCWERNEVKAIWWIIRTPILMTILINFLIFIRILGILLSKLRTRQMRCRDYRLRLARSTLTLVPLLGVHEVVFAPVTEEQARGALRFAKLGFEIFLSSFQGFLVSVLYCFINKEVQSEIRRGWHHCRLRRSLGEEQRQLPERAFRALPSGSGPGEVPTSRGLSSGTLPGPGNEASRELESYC
Test: competition
Conditions: modification not given
Response body: numeric value in nM, unit text excluded.

>>> test_value("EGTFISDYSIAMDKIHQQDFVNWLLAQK [GIP(3-30)NH2]")
3.4

Please look at this binder and report its IC50: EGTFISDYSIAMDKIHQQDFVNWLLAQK [hGIP(3-30)]
16
